Tested on: PCSK9 mRNA
Type: cell-based, human
measurement conditions: Hep3B cells, 100 nM, relative to untreated control cells; 0 = no reduction observed
Strand notation (5' to 3'): a small letter for the sugar, then the base; units joined by * are phosphorothioate-linked, units joined directly phosphodiester-linked; [ ] holds rarer units or linkages, { } end groups; capitals alone tell only the bases. e = 2'-O-(2-methoxyethyl) (MOE); [5mC] = 5-methylcytosine; d = 2'-deoxy (DNA)
attribute measured: % Inhib (PCSK9 mRNA)
The reply must contain the numeric value and, after it, the unit.

Task item: Find % Inhib (PCSK9 mRNA) (PCSK9 mRNA) for the entry 400310 (eT*e[5mC]*d[5mC]*d[5mC]*dG*dG*d[5mC]*d[5mC]*dG*d[5mC]*dT*dG*eA*e[5mC]; antisense) [compound 400310]
Reply: 8%

Task item: Find % Inhib (PCSK9 mRNA) (PCSK9 mRNA) for the entry 400311 (eA*eT*d[5mC]*d[5mC]*d[5mC]*dG*dG*d[5mC]*d[5mC]*dG*d[5mC]*dT*eG*eA; antisense) [compound 400311]
Reply: 18%

Task item: Find % Inhib (PCSK9 mRNA) (PCSK9 mRNA) for the entry 400338 (eG*eG*dT*d[5mC]*d[5mC]*dT*d[5mC]*dA*dG*dG*dG*dA*eA*e[5mC]; antisense) [compound 400338]
Reply: 9%
